System: mice
Assay details: Neuropharmacological assay (SmartCube), behavioral signature of compound-treated mice
Format: in vivo
Settings: i.p. 15 min before behavioral test, most efficacious dose(s) of 3 doses
Endpoint: CE: cognitive enhancer (probability that behavioral signature matches class)

• OC1CO[C@@H]([C@@H]2CCCN2)c2ccc(F)cc21 (some centres unmarked) [Compound I-134] = + (LOQ ≤ + <5%)
• Cc1cccc2c1[C@@H]([C@@H]1CCCN1)OCCC2 [Compound I-101] = + (LOQ ≤ + <5%)
• Cc1ccc2c(c1)[C@H]([C@H]1CCCN1)OCC2 [Compound I-28] = + (LOQ ≤ + <5%)
• c1ccc(-c2ccc3c(c2)CCO[C@@H]3[C@@H]2CCCN2)nc1 [Compound I-57] = + (LOQ ≤ + <5%)

====

System: mice
Assay details: Neuropharmacological assay (SmartCube), behavioral signature of compound-treated mice
Type: in vivo
Settings: i.p. 15 min before behavioral test, most efficacious dose(s) of 3 doses
Endpoint: CE: cognitive enhancer (probability that behavioral signature matches class)

* N#Cc1ccc2c(c1)CCO[C@H]2[C@@H]1CCCN1 | ++ (5% ≤ ++ <25%)
* c1ccc2c(c1)CCCO[C@H]2[C@@H]1CCCN1 | + (LOQ ≤ + <5%)
* COc1cccc2c1[C@H]([C@H]1CCCN1)OCC2 | ++ (5% ≤ ++ <25%)
* Fc1ccc2c(c1)[C@@H]([C@H]1CCCN1)OCCC2 | ++ (5% ≤ ++ <25%)
* N#Cc1ccc2c(c1)CCO[C@@H]2[C@H]1CCCN1 | ++ (5% ≤ ++ <25%)
* c1ccc2c(c1)CCO[C@H]2[C@@H]1CCCN1 [Compound I-18, (S)-2-((R)-isochroman-1-yl)pyrrolidine] | ++ (5% ≤ ++ <25%)
* c1cc2c(c3c1CO[C@@H]3[C@@H]1CCCN1)OCO2 | ++ (5% ≤ ++ <25%)
* Fc1ccc2c(c1)CO[C@H]2[C@H]1CCCN1 | ++ (5% ≤ ++ <25%)
* FC1(F)CN[C@H]([C@@H]2OCCc3ccccc32)C1 | + (LOQ ≤ + <5%)

====

Tested on: mice
Assay details: Neuropharmacological assay (SmartCube), behavioral signature of compound-treated mice
Type: in vivo
Settings: i.p. 15 min before behavioral test, most efficacious dose(s) of 3 doses
Endpoint: AX: anxiolytic (probability that behavioral signature matches class)

* Fc1ccc2c(c1)CCCO[C@H]2[C@@H]1CCCN1 | ++ (5% ≤ ++ <25%)
* Fc1ccc2c(c1)CO[C@@H]2[C@H]1CCCN1 | ++ (5% ≤ ++ <25%)
* Fc1ccc2c(c1)CCCO[C@@H]2[C@H]1CCCN1 | ++ (5% ≤ ++ <25%)
* c1ccc2c(c1)CCCO[C@@H]2[C@@H]1CCCN1 | ++ (5% ≤ ++ <25%)
* FC1(F)CN[C@H]([C@@H]2OCCc3ccccc32)C1 | ++ (5% ≤ ++ <25%)
* c1ccc2c(c1)CCO[C@@H]2[C@@H]1CCN1 [Compound I-79, (S)-2-((S)-isochroman-1-yl)azetidine] | +++ (25% ≤ +++ <50%)
* Fc1ccc2c(c1)CO[C@@H]2[C@@H]1CCCN1 | +++ (25% ≤ +++ <50%)
* Cc1cccc2c1[C@H]([C@@H]1CCCN1)OCCC2 | +++ (25% ≤ +++ <50%)
* Cc1ccc2c(c1)[C@@H](C1CNC1)OCC2 [Compound I-116, (R)-3-(7-methylisochroman-1-yl)azetidine] | ++ (5% ≤ ++ <25%)
